// reported half-life at 1.9 mM for each item listed
# Assay Overview: Chemical hydrolysis in phosphate buffer saline (PBS, pH 7.3)
# Type: physicochemical
# Experimental Context: PBS pH 7.3, 37 °C, read-out: PBS pH 7.3 t 1/2 (converted)

A selection of reference data follows.
Molecule: CCCCCCCCCCCCCCCCCCOP(=O)(OCC(CC)CCCC)OP(=O)(O)OP(=O)(O)OC[C@H]1O[C@@H](n2cc(C)c(=O)[nH]c2=O)C[C@@H]1N=[N+]=[N-] (stereo partly shown) [10bw]
Reported Value: > 83.3 days
--
Molecule: CCCCCCCCCCCCCCCCCCP(=O)(OCCCC)OP(=O)(O)OP(=O)(O)OC[C@H]1O[C@@H](n2ccc(=O)[nH]c2=O)C[C@@H]1F (stereo partly shown) [10fx]
Reported Value: > 83.3 days
--
Molecule: CCCCCCCCCCCCCCCCCCP(=O)(OCc1ccc(OC(=O)CCCC)cc1)OP(=O)(O)OP(=O)(O)OC[C@H]1O[C@@H](n2cc(Cl)c(=O)[nH]c2=O)C[C@@H]1F (stereo partly shown) [10dz]
Reported Value: 27.9 days

# evaluate next
Requested read-out: half-life at 1.9 mM. Entry: CCCCCCCCCCCCCCCCCCOP(=O)(O)OP(=O)(O)OP(=O)(O)OC[C@H]1O[C@@H](n2cc(/C=C/Br)c(=O)[nH]c2=O)C[C@@H]1O [20g]
> 83.3 days
